Parameter Percentage of T-lymphocytes expressing CXCR5, 1st and 3rd quartine: see the listing below.
System: T lymphocytes expressing CXCR5 in PBMCs of healthy donors
METHOD: CXCR5 expression in T-lymphocytes after peptide stimulation (flow cytometry)
Format: cell-based, human
APPLIED CONDITIONS: 1st and 3rd quartile of 10 donors

// worked examples, Percentage of T-lymphocytes expressing CXCR5, 1st and 3rd quartine included
SUBSTANCE	TGT	VALUE OBSERVED
Seq.9: Aβ[25-42] fragment modified by introduction of glycines in alternate positions, at odd positions (-G) (GSGKGAGIGLGVGGGVGA)	T lymphocytes expressing CXCR5 in PBMCs of healthy donors	9.2-33.4%
Seq.5: Aβ[13-28] fragment of the Aβ[1-42] sequence (HHQKLVFFAEDVGSNK)	T lymphocytes expressing CXCR5 in PBMCs of healthy donors	8.5-30.4%
Seq.3: Aβ[1-16] fragment modified by introduction of glycines in alternate positions, at odd positions (-G) (GAGFGHGSGYGVGHGK)	T lymphocytes expressing CXCR5 in PBMCs of healthy donors	14.1-39.9%
Seq.8: Aβ[25-42] fragment of the Aβ[1-42] sequence (GSNKGAIIGLMVGGVVIA)	T lymphocytes expressing CXCR5 in PBMCs of healthy donors	8.2-36.7%

Q: Item Seq.6: Aβ[13-28] fragment modified by introduction of glycines in alternate positions, at odd positions (-G) (GHGKGVGFGEGVGSGK) has what recorded Percentage of T-lymphocytes expressing CXCR5, 1st and 3rd quartine?
Result: 11.3-39.9%

====

Tested on: T lymphocytes expressing CXCR5 in PBMCs of healthy donors
METHOD: CXCR5 expression in T-lymphocytes after peptide stimulation (flow cytometry)
Assay type: cell-based, human
APPLIED CONDITIONS: donor Pz3; peptides 5ug/ml; 4 days after third stimulation
Threshold check on Percentage of T-lymphocytes expressing CXCR5: strictly below 60% is true (1); on or above 60% is false (0).

Take a look at these entries with their results.
SUBSTANCE	TGT	GROUP LABEL
Seq.3: Aβ[1-16] fragment modified by introduction of glycines in alternate positions, at odd positions (-G) (GAGFGHGSGYGVGHGK)	T lymphocytes expressing CXCR5 in PBMCs of healthy donors	false (0)
Seq.6: Aβ[13-28] fragment modified by introduction of glycines in alternate positions, at odd positions (-G) (GHGKGVGFGEGVGSGK)	T lymphocytes expressing CXCR5 in PBMCs of healthy donors	true (1)
Seq.5: Aβ[13-28] fragment of the Aβ[1-42] sequence (HHQKLVFFAEDVGSNK)	T lymphocytes expressing CXCR5 in PBMCs of healthy donors	true (1)
Seq.9: Aβ[25-42] fragment modified by introduction of glycines in alternate positions, at odd positions (-G) (GSGKGAGIGLGVGGGVGA)	T lymphocytes expressing CXCR5 in PBMCs of healthy donors	true (1)

Next, consider the following substance.
Q: Threshold test, Percentage of T-lymphocytes expressing CXCR5 < 60%: Seq.8: Aβ[25-42] fragment of the Aβ[1-42] sequence (GSNKGAIIGLMVGGVVIA)
Result: false (0)

====

System: T lymphocytes expressing CXCR5 in PBMCs of healthy donors
METHOD: CXCR5 expression in T-lymphocytes after peptide stimulation (flow cytometry)
Assay type: cell-based, human
APPLIED CONDITIONS: donor Pz5; peptides 5ug/ml; 4 days after third stimulation
Protocol: In order to evaluate the expression of a specific marker (CXCR5) in cultured […], the cells, 4 days after the third stimulation, were washed twice and stained with anti-CXCR5, in PBS supplemented with 0.5% FCS and 0.01%NaN3 at 4°C. After twenty minutes they were washed twice and analysed on FACSCanto flow cytometer (Becton Dickinson). The data were analyzed using FlowJo software (TreeStar, CA, USA). Table 3. […]
Parameter Percentage of T-lymphocytes expressing CXCR5: see the listing below.

// worked examples, Percentage of T-lymphocytes expressing CXCR5 included
SUBSTANCE	VALUE OBSERVED
Seq.9: Aβ[25-42] fragment modified by introduction of glycines in alternate positions, at odd positions (-G) (GSGKGAGIGLGVGGGVGA)	11,3%
Seq.8: Aβ[25-42] fragment of the Aβ[1-42] sequence (GSNKGAIIGLMVGGVVIA)	8,2%
Seq.6: Aβ[13-28] fragment modified by introduction of glycines in alternate positions, at odd positions (-G) (GHGKGVGFGEGVGSGK)	13,4%
Seq.5: Aβ[13-28] fragment of the Aβ[1-42] sequence (HHQKLVFFAEDVGSNK)	8,5%

API: the following record is the query input.
Q: Item Seq.3: Aβ[1-16] fragment modified by introduction of glycines in alternate positions, at odd positions (-G) (GAGFGHGSGYGVGHGK) with T lymphocytes expressing CXCR5 in PBMCs of healthy donors - Percentage of T-lymphocytes expressing CXCR5?
Result: 9,5%

Origin of measurements: patent EP2106802A1
